// reported solubility (g/100 g solution) for each item listed
- assay.comment: xn = mol fraction of the nth substance listed, in the solute-free solvent
- experimental.setup: 298.15 K; x2 = 0.03225
Answer as a number with no unit attached.

Answered cases to consult:
CN1CCN(C2=Nc3cc(Cl)ccc3Nc3ccccc32)CC1 + CC(C)O + O
0.0182
c1ccc2[nH]c(-c3cscn3)nc2c1 + CCCO + O
0.00634

Continue with the compound presented below.
stdin: Which solubility (g/100 g solution) value is on record for Nc1cccc(S(=O)(=O)c2cccc(N)c2)c1 + CC(C)O + O ?
stdout: 0.143

---

- assay.comment: xn = mol fraction of the nth substance listed, in the solute-free solvent
- experimental.setup: 303.15 K; x2 = 0.2
Lab note: compare solubility (g/100 g solution) against 0.3. Equal or greater, write met. Smaller, write not met.

// known answers, use as guide
S=c1[nH]ncs1 + CO + O
met
CC(N)C(=O)O (stereo unspecified) + O + CC(C)O
not met
Cc1ncc(C[n+]2csc(CCO)c2C)c(N)n1.O=[N+]([O-])[O-] + O + CO
met
S=c1[nH]ncs1 + CCCO + O
met
CC(N)C(=O)O (stereo unspecified) + O + CCO
not met

Okay, now this molecule:
stdin: Decide: solubility (g/100 g solution) of CC(N)C(=O)O (stereo unspecified) + O + CO >= 0.3?
stdout: not met
